molecular target: MAT2A homodimer (Homo sapiens); construct: inferred from the Ni sepharose purification and imidazole elution; made in house; host or cells: SF9 insect cells, recombinant baculovirus (Bac to Bac, pFASTBAC1); assay: MAT2A biochemical assay (liberated phosphate, PiColorLock Gold); details: Table 5a; MAT2A biochemical assay; read-out: Enzyme Inhibition
Sequence (P31153 whole entry): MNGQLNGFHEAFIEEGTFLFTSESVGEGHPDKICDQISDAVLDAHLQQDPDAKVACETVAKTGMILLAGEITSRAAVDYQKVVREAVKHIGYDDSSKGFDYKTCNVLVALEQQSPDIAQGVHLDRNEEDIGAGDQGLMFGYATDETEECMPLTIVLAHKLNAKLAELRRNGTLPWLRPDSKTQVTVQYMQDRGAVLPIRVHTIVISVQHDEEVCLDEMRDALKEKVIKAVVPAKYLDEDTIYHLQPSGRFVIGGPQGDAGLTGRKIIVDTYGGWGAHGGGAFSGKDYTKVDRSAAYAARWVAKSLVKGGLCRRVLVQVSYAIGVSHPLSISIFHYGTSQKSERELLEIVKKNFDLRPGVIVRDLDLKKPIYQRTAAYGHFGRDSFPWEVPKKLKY
Here, each record is paired with measured IC50 data.

> print(dat)
                            chemical.string       result
1  COc1ccc(N2C(=O)N(c3ccc4nncn4c3)Cc3cnc(NCC(F)(F)F)nc32)cc1     < 0.1 µM
2  COc1ccc(N2Cc3cnc(NCC(F)(F)F)nc3N([C@H]3CC[C@H](OC)CC3)C2=O)cc1  0.1 to 1 µM
3  O=C1N(c2ccc3ncccc3c2)Cc2cnc(NCC(F)(F)F)nc2N1c1ccc(OC(F)F)cc1  0.1 to 1 µM

## Task IC50 for COc1ccc(N2Cc3cnc(NCC(F)(F)F)nc3N(c3cn[nH]c3)C2=O)cc1 ?
## Result 1 to 10 µM

----------
Here, each record is paired with measured IC50 data.
system: HCT116 MTAP-/-; test: Inhibition of cellular proliferation (Cell Titer Glo), HCT116 MTAP-/-; format: cell-based, human; settings: Homo sapiens, HCT-116, 96 h, Table 5a, 4 days, read-out: 4 Day Relative Growth Inhibition (MTAP −/−)

Here is how some compounds turned out for IC50.
> print(dat)
                                    compound  quantity.name       result
 1  [2H]C([2H])([2H])Oc1ccc(N2C(=O)N(c3ccc4ncsc4c3)Cc3ccc(OCC(F)F)nc32)cc1 [Example 102]           IC50  0.1 to 1 µM
 2  CCSc1ccc2c(n1)N(c1ccc(OC)cc1)C(=O)N(c1ccc3nn(C)cc3c1)C2 [Example 132]           IC50  0.1 to 1 µM
 3  COc1ccc(N2Cc3ncc(NCC(F)(F)F)nc3N(c3ccc(OC(F)F)cc3)C2=O)cc1 [Example 415]           IC50  0.1 to 1 µM
 4  Cn1cc2cc(N3Cc4ccc(OCC(F)F)nc4N(c4ccc5ncccc5c4)C3=O)ccc2n1 [Example 175]           IC50  0.1 to 1 µM
 5  CCOc1cnc2c(c1)N(c1ccc(OC(F)F)cc1)C(=O)N(c1ccc(OC)cc1)C2 [Example 289]           IC50       > 1 µM
 6  CCOc1ccc2c(n1)N(c1ccc(-c3nnc[nH]3)cc1)C(=O)N(c1ccc3ncn(C)c3c1)C2 [Example 154]           IC50  0.1 to 1 µM
 7  [2H]C([2H])([2H])Oc1ccc(N2C(=O)N(c3ccc4nn(CC)cc4c3)Cc3ccc(OCC(F)F)nc32)cc1 [Example 124]           IC50     < 0.1 µM
 8  Cn1cc2cc(N3Cc4ccc(OCC(F)F)nc4N(c4ccc(Br)cc4)C3=O)ccc2n1 [Example 133]           IC50     < 0.1 µM
 9  CCOc1ccc2c(n1)N(c1ccc(-c3nnc[nH]3)cc1)C(=O)N(c1ccc3nn(C)cc3c1)C2 [Example 153]           IC50     < 0.1 µM
10  COc1ccc(N2C(=O)N(c3ccc4nn(C)cc4c3)Cc3ccc(NC4CCC4)nc32)cc1 [Example 162]           IC50  0.1 to 1 µM

## Task Value wanted: IC50 (HCT116 MTAP-/-) of entry Cn1cnc2ccc(N3Cc4ccc(NCC(F)(F)F)nc4N(c4ccc(OC(F)F)cc4)C3=O)cc21 [Example 271]
## Result < 0.1 µM

## Task Same for Cn1cc2cc(N3Cc4ccc(OCC(F)F)nc4N(c4ccc5scnc5c4)C3=O)ccc2n1 [Example 170]
## Result < 0.1 µM

## Task Same for [2H]C([2H])([2H])Oc1ccc(N2C(=O)N(c3ccc4nn(C)cc4c3)Cc3c(NC)nc(NCC(F)(F)F)nc32)cc1 [Example 432]
## Result < 0.1 µM

## Task Same for CCOc1ccc2c(n1)N(c1ccc(OC(F)F)cc1)C(=O)N(c1ccc3nncn3c1)C2 [Example 108]
## Result 0.1 to 1 µM
